Sourced from ChEMBL document CHEMBL1130101

# Assayed System: Trypanothione reductase (Trypanosoma cruzi)
# Test Name: Percent Inhibition of trypanothione reductase activity at 28.5 uM concentration
Quantity Measured: inhibition (%)
Numbers only, in %.

Consider the following illustrative entries.
- Cc1cccc(C)c1OCC(O)CN1CCNCC1 (stereo not drawn): 0
- NCCc1ccc(Oc2ccccc2)cc1: 0
- CCC(C)(C)c1ccc(OCCCCN)c(C(C)(C)CC)c1: 0
- CNCCC=C1c2ccccc2CCc2ccccc21: 0

Provide each entry's inhibition from the list below.
1. Clc1ccc(C(c2ccccc2)N2CCNCC2)cc1 (stereo not drawn)
2. C[C@@H]1CN(CCCn2c3ccccc3c3ccccc32)C[C@H](C)N1
3. N#Cc1ccc(C2NCCc3c2[nH]c2ccccc32)cc1 (stereo not drawn)
4. COc1cc(CC2NCCc3c2[nH]c2ccccc32)ccc1O (stereo not drawn)
5. Cc1cc(-c2ccccc2)nnc1NCCN1CCOCC1
6. NCc1ccccc1Sc1ccccc1CO
7. Fc1ccc(C(CCCN2CCNCC2)c2ccc(F)cc2)cc1
8. NCCC1CCN(Cc2ccccc2)CC1

Return:
30
15
0
13
16
0
9
0

Enquiry: Tell me the measured inhibition of `CN(C)CCCC(CN)(c1ccccc1)c1ccccc1` , please.
Return: 9

----------
# Assayed System: UniProtKB P28593
# Test Name: Natural log of the value in (uM) of inhibition constant was tested against Trypanothione Reductase
Quantity Measured: Natural log of inhibition constant (Ki in uM)

Give measured Natural log of inhibition constant (Ki in uM) for every item shown.
1. Cc1ccc(Sc2ccccc2NCCCN2CCN(C)CC2)cc1
2. CN1CCN(CCCNc2cc(Cl)ccc2Sc2ccc(F)cc2)CC1
3. COc1ccc(/C=C/C(=O)NCCCNCCCCN)cc1

Return:
1: 4.17; 2: 4.74; 3: 5.6

----------
# Assayed System: Trypanothione reductase (Trypanosoma cruzi) (UniProt P28593)
# Sequence (P28593 whole entry, looked up): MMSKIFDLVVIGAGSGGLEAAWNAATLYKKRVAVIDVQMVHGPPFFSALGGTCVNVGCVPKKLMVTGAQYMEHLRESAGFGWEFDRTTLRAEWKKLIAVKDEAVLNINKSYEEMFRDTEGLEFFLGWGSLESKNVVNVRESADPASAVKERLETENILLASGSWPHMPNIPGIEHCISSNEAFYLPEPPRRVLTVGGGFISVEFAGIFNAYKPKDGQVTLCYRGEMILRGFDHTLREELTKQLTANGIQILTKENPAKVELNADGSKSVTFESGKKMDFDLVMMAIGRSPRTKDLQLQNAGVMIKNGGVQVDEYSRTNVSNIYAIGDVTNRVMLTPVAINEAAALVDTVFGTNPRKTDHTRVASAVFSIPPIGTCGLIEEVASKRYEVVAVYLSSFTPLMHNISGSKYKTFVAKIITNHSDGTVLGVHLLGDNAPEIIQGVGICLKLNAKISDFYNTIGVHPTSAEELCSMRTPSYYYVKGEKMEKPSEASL
# Test Name: Percent Inhibition of trypanothione reductase activity at 5.7 uM concentration
Quantity Measured: inhibition
Value and unit, in that order.

Example results:
• Cc1cc(-c2ccccc2)nnc1NCCN1CCOCC1 = 18%
• N#Cc1ccc(C2NCCc3c2[nH]c2ccccc32)cc1 (stereo not drawn) = 0%
• COc1cc(CC2NCCc3c2[nH]c2ccccc32)ccc1O (stereo not drawn) = 0%
• CN(C)CCCC(CN)(c1ccccc1)c1ccccc1 = 0%
• NCc1ccccc1Sc1ccccc1CO = 0%

For every item below, please supply its inhibition.
1. Cc1cccc(C)c1OCC(O)CN1CCNCC1 (stereo not drawn)
2. NCCC1CCN(Cc2ccccc2)CC1
3. Fc1ccc(C(CCCN2CCNCC2)c2ccc(F)cc2)cc1
4. Clc1ccc(C(c2ccccc2)N2CCNCC2)cc1 (stereo not drawn)
5. CCC(C)(C)c1ccc(OCCCCN)c(C(C)(C)CC)c1
6. NCCc1ccc(Oc2ccccc2)cc1
7. C[C@@H]1CN(CCCn2c3ccccc3c3ccccc32)C[C@H](C)N1

Return:
1: 0%; 2: 0%; 3: 0%; 4: 0%; 5: 0%; 6: 0%; 7: 10%

Enquiry: So what does the record say about inhibition for `CNCCC=C1c2ccccc2CCc2ccccc21` ?
Return: 0%

----------
# Assayed System: Trypanothione reductase (Trypanosoma cruzi) (UniProt P28593)
# Test Name: Percent Inhibition of trypanothione reductase activity at 57 uM concentration
What inhibition was measured for each of the following?
Answers are plain numbers, in %.

Consider the reported inhibition for these compounds:
* CN(C)CCCC(CN)(c1ccccc1)c1ccccc1 | 36
* CCC(C)(C)c1ccc(OCCCCN)c(C(C)(C)CC)c1 | 0
* NCc1ccccc1Sc1ccccc1CO | 31
* Clc1ccc(C(c2ccccc2)N2CCNCC2)cc1 (stereo not drawn) | 40
* CNCCC=C1c2ccccc2CCc2ccccc21 | 25
* Cc1cccc(C)c1OCC(O)CN1CCNCC1 (stereo not drawn) | 7
* Fc1ccc(C(CCCN2CCNCC2)c2ccc(F)cc2)cc1 | 18
* N#Cc1ccc(C2NCCc3c2[nH]c2ccccc32)cc1 (stereo not drawn) | 0

Kindly give each listed record's inhibition.
1. Cc1cc(-c2ccccc2)nnc1NCCN1CCOCC1
2. NCCc1ccc(Oc2ccccc2)cc1
3. C[C@@H]1CN(CCCn2c3ccccc3c3ccccc32)C[C@H](C)N1
4. NCCC1CCN(Cc2ccccc2)CC1
5. COc1cc(CC2NCCc3c2[nH]c2ccccc32)ccc1O (stereo not drawn)

Return:
1. 12
2. 0
3. 23
4. 0
5. 27
